Test system: CEM cells HIV-1 protection, formazan growth assay
assayExplanation: NCI AIDS Antiviral Assay
runParameters: measured here: growth of uninfected CEM cells
pIC50: −log10 of the molar value.
endpointLabel: pIC50

>  <compound>
Fc1ccc(NC(=S)N/N=C\c2c(Cl)cccc2Cl)cc1

>  <endpointResult>
< 3.56

$$$$
>  <compound>
COc1cc2c(cc1O)CC[n+]1cc3c(OC)c(OC)ccc3cc1-2

>  <endpointResult>
< 3.74

$$$$
>  <compound>
NC(=O)N/N=C1/CCCCC1c1ccccc1 (stereo not drawn)

>  <endpointResult>
< 3.39

$$$$
>  <compound>
CC1Cn2c(=S)[nH]c3cccc(c32)NC1=O (stereo not drawn)

>  <endpointResult>
< 3.70

$$$$
>  <compound>
Cn1cnc2nc[nH]c2c1=N

>  <endpointResult>
< 3.70

$$$$
>  <compound>
OC1CSCCCSCCSCCCSC1

>  <endpointResult>
< 4.76

$$$$
>  <compound>
c1c[nH]c(C23C4C5C6C4C2C6C53)n1 (stereo not drawn)

>  <endpointResult>
< 3.70

$$$$
>  <compound>
c1cc(-c2ccc(-c3ccc(-c4ccc(-c5cccc6nsnc56)[nH]4)c4nsnc34)[nH]2)c2nsnc2c1

>  <endpointResult>
< 4.00

$$$$
>  <compound>
CC(C)(C)C1=CC(=Nc2c([N+](=O)[O-])cc([N+](=O)[O-])cc2[N+](=O)[O-])C=C(C(C)(C)C)C1=O

>  <endpointResult>
< 4.94

$$$$
>  <compound>
Cc1[nH]c(N)nc(=S)c1CCC(=O)O

>  <endpointResult>
< 3.70

$$$$
>  <compound>
CCOC(=O)/C(=C\c1cccc(C#N)c1)[Se]c1ccccc1

>  <endpointResult>
< 4.28

$$$$
>  <compound>
CC1(n2[nH]c(=O)n(-c3ccccc3)c2=O)Cn2c(=O)n(-c3ccccc3)c(=O)n2-c2ccccc21 (stereo not drawn)

>  <endpointResult>
< 3.70

$$$$
>  <compound>
Cn1c(N)c(Cc2ccc(Cl)cc2)c(=O)[nH]c1=O

>  <endpointResult>
< 3.70

$$$$
>  <compound>
Cc1cc(-c2cccs2)oc(=O)c1NC(=O)c1cnccn1

>  <endpointResult>
< 3.70

$$$$
>  <compound>
OC(c1ccccc1)C(F)(F)c1nc2ccccc2o1 (stereo not drawn)

>  <endpointResult>
< 3.70

$$$$
>  <compound>
Cc1ccc(N2C(=O)C3C=CC(n4[nH]c(=O)n(Cc5ccccc5)c4=O)CC3C2=O)cc1 (stereo not drawn)

>  <endpointResult>
< 3.38

$$$$
>  <compound>
CCOC(=O)C(Cl)(Cl)/S(=N\S(=O)(=O)c1ccccc1)NC(=O)c1ccccc1 (stereo not drawn)

>  <endpointResult>
< 3.70

$$$$
>  <compound>
OC1[C@@H]2[C@@H](O)CCCN2C[C@@H](O)[C@H]1O (stereo partly drawn)

>  <endpointResult>
< 3.70

$$$$
